Source: patent US20240002416A1

molecular target: human MRGPRX4-83L (Homo sapiens, UniProt Q96LA9); construct: host or cells: CHO β-arrestin cells; experiment: β-arrestin assay (CHO β-arrestin ARMS1-ProLink 2 human MRGPRX4 83L); format: cell-based; settings: Table 1; β-arrestin recruitment, CHO cells, MRGPRX4-83L; means of 3-4 experiments; read-out: EC50 ± SEM
Sequence (Q96LA9 whole entry): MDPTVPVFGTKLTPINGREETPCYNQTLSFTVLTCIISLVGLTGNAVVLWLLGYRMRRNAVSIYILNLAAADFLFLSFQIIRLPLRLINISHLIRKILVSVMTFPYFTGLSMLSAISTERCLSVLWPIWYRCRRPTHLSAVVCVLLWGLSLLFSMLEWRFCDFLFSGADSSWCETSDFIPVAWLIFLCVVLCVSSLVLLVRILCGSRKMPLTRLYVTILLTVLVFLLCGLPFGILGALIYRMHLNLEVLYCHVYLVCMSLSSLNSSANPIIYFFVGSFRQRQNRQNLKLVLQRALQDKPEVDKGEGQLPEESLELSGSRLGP
pEC50: −log10 of the molar value.
recorded_metric: pEC50

1. C#CCn1c(=O)c2[nH]c(CCc3ccccc3OC)nc2n(CCCCP(=O)(O)OCC)c1=O :: 6.95
2. C#CCn1c(=O)c2c(nc(CCc3cccc(C(F)(F)F)c3)n2C)n(CCCCP(=O)(O)O)c1=O :: 6.43
3. C#CCn1c(=O)c2c(nc(CCc3ccccc3Br)n2C)n(CCCCP(=O)(O)O)c1=O :: 7.03
4. C#CCn1c(=O)c2c(nc(CCc3ccccc3Br)n2Cc2ccccc2)n(CCCCP(=O)(O)O)c1=O :: 7.22
5. C#CCn1c(=O)c2c(nc(CCc3ccccc3Cl)n2C)n(CCCCP(=O)(O)O)c1=O :: 6.77
6. C#CCn1c(=O)c2c(nc(CCc3ccccc3Br)n2CC)n(CCCCP(=O)(O)O)c1=O :: 7.59
7. C#CCn1c(=O)c2c(nc(CCc3ccccc3Br)n2CC2CC2)n(CCCCP(=O)(O)O)c1=O :: 7.05
8. C#CCn1c(=O)c2[nH]c(CCc3ccccc3Cl)nc2n(CCCCP(=O)(O)O)c1=O :: 5.90
9. C#CCn1c(=O)c2[nH]c(CCc3cccc(OC)c3)nc2n(CCCCP(=O)(O)OCC)c1=O :: 6.39

====

EC50 reference
Molecular target: MRGPRX4-83S (Homo sapiens, UniProt Q96LA9, L83S)
Sequence (Q96LA9 whole entry L83S): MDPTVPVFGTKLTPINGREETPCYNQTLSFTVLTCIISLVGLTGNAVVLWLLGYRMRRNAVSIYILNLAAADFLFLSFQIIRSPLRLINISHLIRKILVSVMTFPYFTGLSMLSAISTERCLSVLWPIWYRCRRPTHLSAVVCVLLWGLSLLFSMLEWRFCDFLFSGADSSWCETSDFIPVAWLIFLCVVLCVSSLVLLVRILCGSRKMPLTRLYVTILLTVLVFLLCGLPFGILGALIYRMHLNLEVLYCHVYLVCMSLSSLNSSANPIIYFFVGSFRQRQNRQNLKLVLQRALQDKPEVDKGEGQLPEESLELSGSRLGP
Assay: Calcium assay (human glioblastoma LN229 cells expressing the MRGPRX4-83S)
Format: cell-based
Parameters: LN229 glioblastoma cells natively expressing the MRGPRX4-83S; endogenous in cells; host or cells: LN229 human glioblastoma cells
Details: Table 2; calcium mobilization, LN229 cells, MRGPRX4-83S; read-out: EC50 ± SEM
Source text: For β-arrestin recruitment assays, recombinant Chinese hamster ovary (CHO) cells expressing the human MRGPRX4 were used (DiscoverX/Eurofins) which allowed to measure β-galactosidase complementation upon β-arrestin recruitment. For calcium mobilization assays, recombinant astrocytes expressing MRGPX4-83L, or LN229 glioblastoma cells natively expressing the MRGPRX4-83S, were used. […]
recorded_metric: EC50 (nM)

1) C#CCn1c(=O)c2[nH]c(/C=C/c3cccc(OC)c3)nc2n(CCCCP(=O)(O)O)c1=O [J-1] :: 11.6
2) C#CCn1c(=O)c2[nH]c(CCc3cccc(OC)c3)nc2n(CCCCP(=O)(O)O)c1=O [B-2] :: 11.2
3) C#CCn1c(=O)c2[nH]c(CCc3ccccc3OC)nc2n(CCCCP(=O)(O)O)c1=O [B-7] :: 10.3

====

Emax reference
Molecular target: human MRGPRX4-83L (Homo sapiens)
Construct: host or cells: CHO β-arrestin cells
Test: Calcium assay (human MRGPRX4 83L), recombinant astrocytes
Assay type: cell-based
Conditions: Table 4; efficacy based on maximal effect of 1 μM B-16 (set as 100%); read-out: Emax
From the text: For β-arrestin recruitment assays, recombinant Chinese hamster ovary (CHO) cells expressing the human MRGPRX4 were used (DiscoverX/Eurofins) which allowed to measure β-galactosidase complementation upon β-arrestin recruitment. For calcium mobilization assays, recombinant astrocytes expressing MRGPX4-83L, or LN229 glioblastoma cells natively expressing the MRGPRX4-83S, were used. […]
recorded_metric: Emax (%)

1. C#CCn1c(=O)c2[nH]c(CCc3ccccc3Br)nc2n(CCCCCCP(=O)(O)O)c1=O :: 94
2. C#CCn1c(=O)c2c(nc(CCc3ccccc3I)n2CC)n(CCCCP(=O)(O)O)c1=O :: 103
3. C#CCn1c(=O)c2c(nc(CCc3ccccc3Br)n2C)n(CCCCCCP(=O)(O)O)c1=O :: 102
4. C#CCn1c(=O)c2[nH]c(CCc3ccccc3Br)nc2n(CCCCCP(=O)(O)O)c1=O :: 61
5. C#CCn1c(=O)c2c(nc(CCc3ccccc3Br)n2CC)n(CCCCCP(=O)(O)O)c1=O :: 103
6. C#CCn1c(=O)c2c(nc(CCc3ccccc3F)n2C)n(CCCCP(=O)(O)O)c1=O :: 62
